biological target: UniProt P42338; experiment: Transcreener KINASE Assay, fluorescent determination of PI3K enzyme activity; format: biochemical; details: at 1 μM; read-out: PI3K-β IH % (inhibition rate);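 as to PI3K-β IH % (inhibition rate): recombinant PI3K enzyme reaction, 80 min at room temperature, ADP formed detected by far-red competitive fluorescence polarization immunoassay, inhibition relative to ADP in 2% DMSO control wells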
Sequence (P42338 whole entry, looked up): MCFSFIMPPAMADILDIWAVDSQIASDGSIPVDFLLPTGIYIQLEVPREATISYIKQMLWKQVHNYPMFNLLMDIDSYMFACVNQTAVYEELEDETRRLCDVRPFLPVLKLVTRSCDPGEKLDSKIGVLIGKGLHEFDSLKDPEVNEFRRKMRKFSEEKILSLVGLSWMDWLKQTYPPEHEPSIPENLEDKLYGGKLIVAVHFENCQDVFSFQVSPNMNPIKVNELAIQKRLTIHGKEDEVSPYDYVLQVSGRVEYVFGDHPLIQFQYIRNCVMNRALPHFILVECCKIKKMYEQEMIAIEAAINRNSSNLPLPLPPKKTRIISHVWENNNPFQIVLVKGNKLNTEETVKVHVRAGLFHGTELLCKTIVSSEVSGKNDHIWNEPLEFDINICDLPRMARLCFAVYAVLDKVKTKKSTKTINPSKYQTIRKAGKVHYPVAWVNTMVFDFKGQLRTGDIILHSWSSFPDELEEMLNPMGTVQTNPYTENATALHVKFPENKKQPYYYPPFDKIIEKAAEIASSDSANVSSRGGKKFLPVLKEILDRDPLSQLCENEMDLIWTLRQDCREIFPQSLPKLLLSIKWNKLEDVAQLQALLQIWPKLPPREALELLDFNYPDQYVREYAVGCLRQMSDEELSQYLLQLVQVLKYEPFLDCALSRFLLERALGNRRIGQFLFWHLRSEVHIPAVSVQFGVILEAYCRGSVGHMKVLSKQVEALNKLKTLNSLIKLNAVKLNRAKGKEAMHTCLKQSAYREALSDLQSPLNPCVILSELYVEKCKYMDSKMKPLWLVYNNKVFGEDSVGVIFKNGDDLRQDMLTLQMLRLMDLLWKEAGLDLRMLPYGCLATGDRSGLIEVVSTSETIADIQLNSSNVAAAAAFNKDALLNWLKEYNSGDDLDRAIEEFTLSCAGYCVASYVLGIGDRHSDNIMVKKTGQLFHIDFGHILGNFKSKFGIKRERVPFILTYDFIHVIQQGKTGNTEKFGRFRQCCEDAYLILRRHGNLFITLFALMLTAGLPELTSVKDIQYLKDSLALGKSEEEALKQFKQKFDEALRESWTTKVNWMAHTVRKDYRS
MEASUREMENT TYPE: inhibition at 1 µM (%)
Value expressed in %; do not type the unit.

These recorded examples may help you get a feel for the data.
MOLECULE	MEASUREMENT TYPE	OBS VALUE
C[C@H](Nc1ncnc(N)c1C(N)=O)c1cc2ncc(Cl)n2nc1-c1ccccc1 [Compound 53]	inhibition at 1 µM	30.5
C[C@H](Nc1ncnc(N)c1C#N)c1cc2ncc(Cl)n2nc1-c1ccc(F)c(F)c1 [Compound 63]	inhibition at 1 µM	48.1
C[C@H](Nc1ncnc2[nH]cnc12)c1cc2ncc(Cl)n2nc1-c1cccc(F)c1 [Compound 16]	inhibition at 1 µM	27.5

Shift focus to the following entry.
Consider the molecule shown here: CC[C@@H](Nc1ncnc(N)c1C#N)c1cc2ncc(Cl)n2nc1-c1ccccc1 [Compound 5] What is its recorded inhibition at 1 µM?
-10.7

---

biological target: PI3K-γ (p110γ) (Homo sapiens (Human), UniProt P48736); assay: Transcreener KINASE Assay, fluorescent determination of PI3K enzyme activity; format: biochemical; details: at 1 μM; read-out: PI3K-γ IH % (inhibition rate);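 as to PI3K-γ IH % (inhibition rate): ADP produced by p110γ kinase reaction, 80 min at room temperature, detected by far-red fluorescence polarization immunoassay, inhibition relative to 2% DMSO control wells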
Sequence (P48736 whole entry, species assumed): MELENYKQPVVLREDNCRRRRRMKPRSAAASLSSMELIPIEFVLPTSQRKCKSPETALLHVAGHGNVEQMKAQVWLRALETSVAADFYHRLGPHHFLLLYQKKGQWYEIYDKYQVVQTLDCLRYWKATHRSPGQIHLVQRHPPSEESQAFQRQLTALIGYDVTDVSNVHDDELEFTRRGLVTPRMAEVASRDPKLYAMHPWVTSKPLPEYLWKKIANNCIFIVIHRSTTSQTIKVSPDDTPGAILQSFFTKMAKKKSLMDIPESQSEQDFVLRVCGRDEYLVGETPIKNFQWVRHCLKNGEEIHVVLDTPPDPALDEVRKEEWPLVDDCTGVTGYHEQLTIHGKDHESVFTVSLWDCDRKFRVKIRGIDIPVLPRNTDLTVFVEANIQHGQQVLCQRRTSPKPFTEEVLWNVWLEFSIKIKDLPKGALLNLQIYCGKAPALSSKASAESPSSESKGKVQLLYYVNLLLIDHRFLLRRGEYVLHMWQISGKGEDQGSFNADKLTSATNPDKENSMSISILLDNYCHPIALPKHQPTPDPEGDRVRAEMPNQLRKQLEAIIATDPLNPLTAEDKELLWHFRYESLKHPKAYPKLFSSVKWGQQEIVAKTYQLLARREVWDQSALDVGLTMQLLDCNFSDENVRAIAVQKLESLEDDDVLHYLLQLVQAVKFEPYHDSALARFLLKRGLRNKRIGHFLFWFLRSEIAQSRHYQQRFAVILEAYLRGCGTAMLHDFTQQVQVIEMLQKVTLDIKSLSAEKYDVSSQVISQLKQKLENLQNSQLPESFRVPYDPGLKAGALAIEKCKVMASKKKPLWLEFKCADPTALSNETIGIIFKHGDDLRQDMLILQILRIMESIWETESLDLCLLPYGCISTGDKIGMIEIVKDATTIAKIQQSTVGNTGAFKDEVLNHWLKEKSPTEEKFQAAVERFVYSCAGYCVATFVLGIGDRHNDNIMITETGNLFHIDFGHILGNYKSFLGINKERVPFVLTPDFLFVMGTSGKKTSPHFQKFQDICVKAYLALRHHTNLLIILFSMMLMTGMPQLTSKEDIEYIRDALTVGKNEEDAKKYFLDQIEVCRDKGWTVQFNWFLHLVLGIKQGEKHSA
Recorded inhibition at 1 µM values for a group of molecules are listed next.
Value expressed in %; do not type the unit.

These recorded examples may help you get a feel for the data.
MOLECULE	inhibition at 1 µM / %
C[C@H](Nc1ncnc(N)c1C#N)c1cc2ncc(Cl)n2nc1-c1ccncc1	62.8
C[C@H](Nc1ncnc(N)c1C#N)c1cc2ncc(Cl)n2nc1-c1ccc2ccn(C)c2c1	-14.3
CC[C@@H](Nc1ncnc2[nH]cnc12)c1cc2ncc(Cl)n2nc1-c1cccc(F)c1	36
CCC(Nc1ncnc(N)c1C#N)c1cc2ncc(Cl)n2nc1-c1ccccn1 (centres unmarked)	18.8
C[C@@H](Nc1ncnc(N)c1C#N)c1cc2ncc(Cl)n2nc1-c1ccccn1	-2.3

Consider the molecule shown here: CCC(Nc1ncnc(N)c1C#N)c1cc2ncc(Cl)n2nc1-c1cccc(F)c1 (centres unmarked) What is its recorded inhibition at 1 µM?
44.5

Consider the molecule shown here: COc1cc(-c2c(N)ncnc2N[C@@H](C)c2cc3ncc(Cl)n3nc2-c2ccccc2)ccn1 What is its recorded inhibition at 1 µM?
5.5

Consider the molecule shown here: CC[C@H](Nc1ncnc(N)c1C#N)c1cc2ncc(Cl)n2nc1-c1ccccc1 What is its recorded inhibition at 1 µM?
61.1

---

IC50 tested on PI3K-γ (p110γ) (Homo sapiens (Human)): recorded values

These recorded examples may help you get a feel for the data.
COMPOUND	IC50
Cc1cccc(-c2nn3c(Cl)cnc3cc2[C@H](C)Nc2ncnc(N)c2C#N)c1	247 nM
C[C@H](Nc1ncnc(N)c1C#N)c1cc2ncc(Cl)n2nc1-c1ccsc1	48 nM
C[C@H](Nc1ncnc2[nH]cnc12)c1cc2ncc(Cl)n2nc1-c1cccc(F)c1	326 nM
C[C@H](Nc1ncnc(N)c1C#N)c1cc2ncc(Cl)n2nc1-c1cccc(S(C)(=O)=O)c1	50 nM

Consider the compound shown here: CC(Nc1ncnc2[nH]cc(C#N)c12)c1cc2ncc(Cl)n2nc1-c1ccccc1 (single isomer, unassigned) What is its recorded IC50?
46 nM

Consider the compound shown here: C[C@H](Nc1ncnc(N)c1C#N)c1cc2ncc(Cl)n2nc1-c1cnn(C)c1 What is its recorded IC50?
513 nM

---

pIC50 tested on UniProt:P48736: recorded values
Note on pIC50: it is the negative log10 of concentration, concentration in mol/L.

MOLECULE	OBS VALUE
C[C@H](Nc1ncnc(N)c1C#N)c1cc2ncc(Cl)n2nc1-c1cccnc1	6.36
C[C@H](Nc1ncnc(N)c1C#N)c1cc2ncc(Cl)n2nc1-c1ccccc1F	6.26
C[C@H](Nc1ncnc2[nH]cnc12)c1cc2ncc(Cl)n2nc1-c1ccccc1F	6.32
C[C@H](Nc1ncnc(N)c1C#N)c1cc2ncc(Cl)n2nc1-c1cccc(C#N)c1	6.21
C[C@H](Nc1ncnc(N)c1C#N)c1cc2ncc(Cl)n2nc1-c1cccc(Cl)c1	6.30

Given the entry Cc1cnc2cc([C@H](C)Nc3ncnc4[nH]cnc34)c(-c3ccccc3)nn12 , what pIC50 was observed with UniProt:P48736?
6.46

Given the entry CCC(Nc1ncnc(N)c1C#N)c1cc2ncc(Cl)n2nc1-c1ccccc1F (centres unmarked) , what pIC50 was observed with UniProt:P48736?
5.71

Given the entry C[C@H](Nc1ncnc(N)c1C#N)c1cc2ncc(Cl)n2nc1-c1cccc(F)c1F , what pIC50 was observed with UniProt:P48736?
6.61

Given the entry Cc1nnc(-c2c(N)ncnc2N[C@@H](C)c2cc3ncc(Cl)n3nc2-c2ccccc2)o1 , what pIC50 was observed with UniProt:P48736?
7.01

Given the entry Cc1noc(-c2c(N)ncnc2N[C@@H](C)c2cc3ncc(Cl)n3nc2-c2ccccc2)n1 , what pIC50 was observed with UniProt:P48736?
6.69

Given the entry C[C@H](Nc1ncnc(N)c1C#N)c1cc2ncc(Cl)n2nc1-c1cccc(C(F)(F)F)c1 , what pIC50 was observed with UniProt:P48736?
5.88

Given the entry C[C@H](Nc1ncnc(N)c1C#N)c1cc2ncc(Cl)n2nc1-c1cccc(F)c1 , what pIC50 was observed with UniProt:P48736?
6.41

Given the entry Cc1ccccc1-c1nn2c(Cl)cnc2cc1[C@H](C)Nc1ncnc(N)c1C#N , what pIC50 was observed with UniProt:P48736?
6.84

Given the entry C[C@H](Nc1ncnc(N)c1C#N)c1cc2ncc(Cl)n2nc1-c1ccc(F)c(F)c1 , what pIC50 was observed with UniProt:P48736?
6.98

Given the entry Cc1nc2cc([C@H](C)Nc3ncnc(N)c3C#N)c(-c3ccccc3)nn2c1Cl , what pIC50 was observed with UniProt:P48736?
5.62

---

target: PI3K-δ (p110δ/p85α) (Homo sapiens (Human)); assay: Transcreener KINASE Assay, fluorescent determination of PI3K enzyme activity; assay type: biochemical
Sequence (O00329 whole entry, species assumed): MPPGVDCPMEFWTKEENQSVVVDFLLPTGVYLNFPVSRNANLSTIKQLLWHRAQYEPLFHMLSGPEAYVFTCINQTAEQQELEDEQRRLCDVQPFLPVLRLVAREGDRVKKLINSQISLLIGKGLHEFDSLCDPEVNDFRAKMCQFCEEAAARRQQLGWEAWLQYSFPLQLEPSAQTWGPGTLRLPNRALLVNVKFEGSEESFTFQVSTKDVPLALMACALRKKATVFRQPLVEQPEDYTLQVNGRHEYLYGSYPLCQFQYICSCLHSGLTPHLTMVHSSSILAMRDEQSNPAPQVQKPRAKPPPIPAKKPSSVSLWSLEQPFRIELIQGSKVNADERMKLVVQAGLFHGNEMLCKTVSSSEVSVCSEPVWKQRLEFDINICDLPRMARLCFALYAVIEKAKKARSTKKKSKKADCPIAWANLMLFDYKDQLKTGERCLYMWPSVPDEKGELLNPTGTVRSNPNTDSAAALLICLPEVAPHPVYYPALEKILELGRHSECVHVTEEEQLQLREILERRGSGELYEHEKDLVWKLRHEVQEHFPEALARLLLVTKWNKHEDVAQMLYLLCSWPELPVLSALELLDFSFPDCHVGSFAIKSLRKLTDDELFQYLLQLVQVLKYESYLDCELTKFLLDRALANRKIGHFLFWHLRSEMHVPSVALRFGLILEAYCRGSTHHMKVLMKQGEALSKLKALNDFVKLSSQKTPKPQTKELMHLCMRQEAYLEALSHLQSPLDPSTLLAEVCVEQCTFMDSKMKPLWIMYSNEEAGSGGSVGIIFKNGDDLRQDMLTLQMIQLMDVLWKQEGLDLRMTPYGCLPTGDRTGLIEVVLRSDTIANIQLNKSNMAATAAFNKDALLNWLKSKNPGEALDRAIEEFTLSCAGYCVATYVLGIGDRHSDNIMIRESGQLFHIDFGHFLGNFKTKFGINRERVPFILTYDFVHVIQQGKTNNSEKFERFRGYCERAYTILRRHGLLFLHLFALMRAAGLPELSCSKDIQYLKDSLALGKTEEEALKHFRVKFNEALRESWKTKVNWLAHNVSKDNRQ
Sequence (P27986 whole entry partner, species assumed): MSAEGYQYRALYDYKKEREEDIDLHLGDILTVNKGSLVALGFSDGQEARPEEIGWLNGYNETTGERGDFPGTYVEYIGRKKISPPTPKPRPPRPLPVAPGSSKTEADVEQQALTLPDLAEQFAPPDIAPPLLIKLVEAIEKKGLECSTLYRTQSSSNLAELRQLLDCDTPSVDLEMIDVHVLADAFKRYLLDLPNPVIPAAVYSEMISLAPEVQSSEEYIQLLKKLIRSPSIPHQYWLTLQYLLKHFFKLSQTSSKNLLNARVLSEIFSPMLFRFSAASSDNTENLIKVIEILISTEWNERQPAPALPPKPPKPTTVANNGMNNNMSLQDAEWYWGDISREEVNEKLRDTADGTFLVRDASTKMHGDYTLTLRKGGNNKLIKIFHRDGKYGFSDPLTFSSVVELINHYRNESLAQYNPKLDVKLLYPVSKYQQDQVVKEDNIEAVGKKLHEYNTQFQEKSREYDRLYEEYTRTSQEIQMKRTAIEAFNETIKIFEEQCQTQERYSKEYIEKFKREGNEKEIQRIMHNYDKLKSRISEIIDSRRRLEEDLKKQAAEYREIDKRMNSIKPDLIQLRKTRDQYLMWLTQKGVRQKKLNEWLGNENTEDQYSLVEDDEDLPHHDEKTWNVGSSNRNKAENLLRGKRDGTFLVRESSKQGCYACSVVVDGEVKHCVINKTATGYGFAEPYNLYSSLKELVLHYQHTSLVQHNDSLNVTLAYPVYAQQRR
MEASUREMENT TYPE: pIC50
Note on pIC50: it is the negative log10 of concentration, concentration in mol/L.

These recorded examples may help you get a feel for the data.
MOLECULE	OBS VALUE
COc1ccc(-c2c(N)ncnc2N[C@@H](C)c2cc3ncc(Cl)n3nc2-c2ccccc2)cn1	7.14
C[C@H](Nc1ncnc(N)c1C#N)c1cc2ncc(Cl)n2nc1-c1ccc2ccccc2c1	6.89
C[C@H](Nc1ncnc(N)c1C#N)c1cc2ncc(Cl)n2nc1-c1cc(F)cc(F)c1	8.52
C[C@H](Nc1ncnc(N)c1C#N)c1cc2ncc(Cl)n2nc1-c1cccc(C#N)c1	8.70
Cc1noc(-c2c(N)ncnc2N[C@@H](C)c2cc3ncc(Cl)n3nc2-c2ccccc2)n1	7.89

Consider the molecule shown here: C[C@H](Nc1ncnc(N)c1C#N)c1cc2ncc(Cl)n2nc1-c1ccccn1 What is its recorded pIC50?
8.00

Consider the molecule shown here: CCC(Nc1ncnc(N)c1C#N)c1cc2ncc(Cl)n2nc1-c1cccc(F)c1 (centres unmarked) What is its recorded pIC50?
8.70

Consider the molecule shown here: Cc1ccccc1-c1nn2c(Cl)cnc2cc1[C@H](C)Nc1ncnc(N)c1C#N What is its recorded pIC50?
8.40

---

molecular target: PI3K-γ (p110γ) (Homo sapiens (Human), UniProt P48736)
MEASUREMENT TYPE: IC50 (nM)
Value expressed in nM; do not type the unit.

MOLECULE	IC50, nM
C[C@H](Nc1ncnc(N)c1C#N)c1cc2ncc(Cl)n2nc1-c1cc(F)cc(F)c1	410
Cc1cnc2cc([C@H](C)Nc3ncnc(N)c3C#N)c(-c3ccccc3)nn12	322
C[C@H](Nc1ncnc(N)c1C#N)c1cc2ncc(Cl)n2nc1-c1cccc(O)c1	226

Consider the molecule shown here: CC(Nc1ncnc2[nH]cnc12)c1cc2ncc(Cl)n2nc1-c1ccccc1 (single isomer, unassigned) What is its recorded IC50?
94

---

Recorded IC50 values for a group of compounds are listed next.
biological target: PI3K-α (p110α/p85α) (Homo sapiens (Human)); assay: Transcreener KINASE Assay, fluorescent determination of PI3K enzyme activity
Sequence (P42336 whole entry, species assumed, one chain of several): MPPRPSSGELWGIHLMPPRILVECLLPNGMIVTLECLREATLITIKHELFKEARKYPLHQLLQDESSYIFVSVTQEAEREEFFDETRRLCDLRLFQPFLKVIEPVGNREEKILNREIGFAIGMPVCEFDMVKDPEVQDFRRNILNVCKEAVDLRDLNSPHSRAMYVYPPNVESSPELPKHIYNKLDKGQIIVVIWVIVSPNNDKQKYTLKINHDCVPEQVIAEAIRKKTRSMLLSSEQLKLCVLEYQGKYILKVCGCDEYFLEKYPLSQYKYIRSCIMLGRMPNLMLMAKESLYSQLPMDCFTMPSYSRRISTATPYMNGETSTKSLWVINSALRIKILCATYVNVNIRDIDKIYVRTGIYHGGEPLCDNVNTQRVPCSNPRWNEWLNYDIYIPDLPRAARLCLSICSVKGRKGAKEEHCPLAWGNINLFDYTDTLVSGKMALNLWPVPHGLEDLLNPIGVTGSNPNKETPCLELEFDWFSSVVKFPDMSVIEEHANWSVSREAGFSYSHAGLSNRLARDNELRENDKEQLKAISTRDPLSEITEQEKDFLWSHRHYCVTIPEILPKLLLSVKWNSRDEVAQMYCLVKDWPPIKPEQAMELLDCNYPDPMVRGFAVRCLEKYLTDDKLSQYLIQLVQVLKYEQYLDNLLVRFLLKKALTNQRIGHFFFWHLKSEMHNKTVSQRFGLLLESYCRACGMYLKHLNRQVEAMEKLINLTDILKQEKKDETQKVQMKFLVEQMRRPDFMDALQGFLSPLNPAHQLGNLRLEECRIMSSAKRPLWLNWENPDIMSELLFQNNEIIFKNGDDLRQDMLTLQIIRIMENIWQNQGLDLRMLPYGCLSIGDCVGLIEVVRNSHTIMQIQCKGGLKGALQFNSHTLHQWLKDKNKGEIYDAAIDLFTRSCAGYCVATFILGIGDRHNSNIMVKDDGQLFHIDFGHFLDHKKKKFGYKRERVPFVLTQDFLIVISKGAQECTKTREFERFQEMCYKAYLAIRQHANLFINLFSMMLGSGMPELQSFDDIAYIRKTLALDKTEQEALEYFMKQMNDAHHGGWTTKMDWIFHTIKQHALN

These recorded examples may help you get a feel for the data.
COMPOUND	ASSAY SYSTEM	IC50
CCC(Nc1ncnc2[nH]cnc12)c1cc2ncc(Cl)n2nc1-c1ccccc1 (stereo not drawn)	PI3K-α (p110α/p85α) (Homo sapiens (Human))	> 1 µM
C[C@@H](c1cc2ncc(Cl)n2nc1-c1ccccc1)n1cnc2c(N)ncnc21	PI3K-α (p110α/p85α) (Homo sapiens (Human))	> 1 µM

Given the entry C[C@H](Nc1ncnc(N)c1C#N)c1cc2ncc(Cl)n2nc1-c1ccccn1 , what IC50 was observed with PI3K-α (p110α/p85α) (Homo sapiens (Human))?
> 1 µM

---

target: PI3K-δ (p110δ/p85α) (Homo sapiens (Human)); experiment: Transcreener KINASE Assay, fluorescent determination of PI3K enzyme activity
Threshold 7 nM: IC50 strictly smaller gives Yes, otherwise No.

MOLECULE	CLASSIFICATION
C[C@H](Nc1ncnc(N)c1C#N)c1cc2ncc(Cl)n2nc1-c1cccc(F)c1	Yes

Kindly review the next molecule as well.
Would you kindly verify if IC50 of CC(Nc1ncnc2[nH]cnc12)c1cc2ncc(Cl)n2nc1-c1ccccc1 (single isomer, unassigned) is strictly less than 7 nM?
Yes
